biological target: hLRRC33-proTGFβ1 in the cell-based potency assay (human, UniProt P01137 30-390; Q86YC3 19-651); assay: cell-based or functional assay
Sequence (P01137 30-390 limits assumed, chain 1 of 2): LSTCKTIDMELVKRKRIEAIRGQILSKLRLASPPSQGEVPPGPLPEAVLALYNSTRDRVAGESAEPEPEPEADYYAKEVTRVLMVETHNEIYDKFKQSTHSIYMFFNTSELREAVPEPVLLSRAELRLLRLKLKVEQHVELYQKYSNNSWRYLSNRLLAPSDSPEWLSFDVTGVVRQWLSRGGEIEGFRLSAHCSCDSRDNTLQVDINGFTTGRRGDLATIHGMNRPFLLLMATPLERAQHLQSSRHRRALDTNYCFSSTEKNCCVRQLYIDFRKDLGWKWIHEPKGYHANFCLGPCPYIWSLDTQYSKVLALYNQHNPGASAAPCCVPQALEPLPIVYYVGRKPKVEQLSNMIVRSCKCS
Sequence (Q86YC3 other isoform, or with tags, fused parts or gaps limits assumed, chain 2 of 2): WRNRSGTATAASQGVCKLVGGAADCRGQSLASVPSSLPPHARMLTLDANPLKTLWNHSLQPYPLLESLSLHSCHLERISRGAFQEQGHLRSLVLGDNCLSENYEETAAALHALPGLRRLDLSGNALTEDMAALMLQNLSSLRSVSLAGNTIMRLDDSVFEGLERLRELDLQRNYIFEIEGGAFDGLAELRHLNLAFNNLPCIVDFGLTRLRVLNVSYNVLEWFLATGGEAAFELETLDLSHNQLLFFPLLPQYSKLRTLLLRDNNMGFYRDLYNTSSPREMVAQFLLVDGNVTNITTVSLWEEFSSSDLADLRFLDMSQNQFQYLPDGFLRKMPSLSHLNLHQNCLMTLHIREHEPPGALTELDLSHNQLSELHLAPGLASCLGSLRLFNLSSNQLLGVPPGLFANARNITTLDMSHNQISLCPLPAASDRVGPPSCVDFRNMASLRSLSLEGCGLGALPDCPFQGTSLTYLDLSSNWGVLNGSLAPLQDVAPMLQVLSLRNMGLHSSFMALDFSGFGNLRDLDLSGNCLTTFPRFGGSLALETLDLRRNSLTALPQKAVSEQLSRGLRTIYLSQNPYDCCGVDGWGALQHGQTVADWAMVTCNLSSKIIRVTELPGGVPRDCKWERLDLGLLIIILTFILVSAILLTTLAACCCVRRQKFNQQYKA
Metric: IC50, reporter cell assay of TGFβ1 activation (nM)

{"columns": ["Binder", "Unit Text", "Endpoint Value"],
 "data": [
  ["Ab23 (antibody, V domains shown) VH: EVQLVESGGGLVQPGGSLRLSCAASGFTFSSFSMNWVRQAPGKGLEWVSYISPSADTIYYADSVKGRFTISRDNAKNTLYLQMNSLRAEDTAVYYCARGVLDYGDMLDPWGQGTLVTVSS VL: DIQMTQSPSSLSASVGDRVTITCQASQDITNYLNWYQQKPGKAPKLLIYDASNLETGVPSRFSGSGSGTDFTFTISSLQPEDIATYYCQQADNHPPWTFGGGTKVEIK", "nM", 0.6],
  ["Ab33 (antibody, V domains shown) VH: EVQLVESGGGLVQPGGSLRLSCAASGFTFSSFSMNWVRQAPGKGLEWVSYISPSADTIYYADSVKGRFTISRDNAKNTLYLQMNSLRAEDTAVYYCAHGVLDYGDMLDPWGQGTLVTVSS VL: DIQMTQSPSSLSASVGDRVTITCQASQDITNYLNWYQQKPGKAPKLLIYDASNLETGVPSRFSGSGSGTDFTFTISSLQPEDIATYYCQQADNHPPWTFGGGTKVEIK", "nM", 0.7]
]}
